Molecular target: T1, O2-AA
T1 chain: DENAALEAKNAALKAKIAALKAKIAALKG
Assay: two-hybrid library CCmax;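 further: natural log of median RNA to DNA barcode read ratio; higher means stronger binding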
Conditions: mean of both orientations
reported-metric: interaction score

See these solved cases before continuing.
DEIAALEAKIAALKAKNAALKAKNAALKG [4H384-AA]
-1.68
DKNAALKAENAALEAEIAALEAEIAALEG [O1-AA]
2.13
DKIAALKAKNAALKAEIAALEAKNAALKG [4H3016-AA]
-1.29
DKIAALKAEIAALEAENAALEAENAALEG [O11-AA]
-0.959
DKNAALKAKIAALKAKNAALKAEIAALEG [O13-AA]
-1.56
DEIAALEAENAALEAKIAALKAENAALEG [4H171-AA]
-1.24

Query: Fill in interaction score for record DENAALEAEIAALEAENAALEAKIAALKG [O14-AA]
Result: 0.393
